Values from the supplement of paper PMC6555819

Tested on: RARa:RXR (NR concentration 270 nM, RXRa partner concentration 90 nM)
Experiment: PBM binding z-score (relative to random genomic background probes); higher = stronger binding; sequences stand for … in GC…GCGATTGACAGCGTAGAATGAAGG
Measured PBM binding z-score by item
Lab note: record the figure alone, no unit after it.

monomerSequence: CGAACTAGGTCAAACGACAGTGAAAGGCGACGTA
PBM binding z-score: 2.13
//
monomerSequence: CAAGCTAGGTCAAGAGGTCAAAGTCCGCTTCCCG
PBM binding z-score: 7.58
//
monomerSequence: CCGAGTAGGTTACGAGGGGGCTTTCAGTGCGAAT
PBM binding z-score: 1.55

# input Suppose we examine the sequence `CCTTACGGGTCACTGACAGCTTATAGCATTTGGA` ; what PBM binding z-score value has been reported?
# output 3.44

# input Suppose we examine the sequence `CCGAGTAGGTTACGCGGGGGCATTCAGTGCGAAT` ; what PBM binding z-score value has been reported?
# output 3.67

# input Suppose we examine the sequence `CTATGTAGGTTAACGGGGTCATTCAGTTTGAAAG` ; what PBM binding z-score value has been reported?
# output 6.06

# input Suppose we examine the sequence `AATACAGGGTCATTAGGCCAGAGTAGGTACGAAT` ; what PBM binding z-score value has been reported?
# output 4.48

# input Suppose we examine the sequence `ATCTCTAGGTTAAAGTTCAGTGAATCCCGAGGAT` ; what PBM binding z-score value has been reported?
# output 3.99

* * *

Measured PBM binding z-score by item
Tested on: RARg homodimer (NR concentration 270 nM)
Test: PBM binding z-score (relative to random genomic background probes); higher = stronger binding; sequences stand for … in GC…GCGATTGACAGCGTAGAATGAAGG
Lab note: record the figure alone, no unit after it.

Study these solved cases before continuing.
monomerSequence: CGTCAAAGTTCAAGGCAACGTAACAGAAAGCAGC
PBM binding z-score: 6.02

monomerSequence: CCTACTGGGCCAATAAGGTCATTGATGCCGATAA
PBM binding z-score: 2.87

monomerSequence: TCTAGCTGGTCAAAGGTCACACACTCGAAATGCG
PBM binding z-score: 6.69

monomerSequence: AGAATGGGGTTATTAAGATCAGGGAATTGCGGTC
PBM binding z-score: 0.796

monomerSequence: CCTAGTTGGTCAAGGTCACGCACGCTATAGGTAC
PBM binding z-score: 5.57

monomerSequence: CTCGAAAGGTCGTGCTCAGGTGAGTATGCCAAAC
PBM binding z-score: 3.88

# input Suppose we examine the sequence `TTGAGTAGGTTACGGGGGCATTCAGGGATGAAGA` ; what PBM binding z-score value has been reported?
# output 3.05

# input Suppose we examine the sequence `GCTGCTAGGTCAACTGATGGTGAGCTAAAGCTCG` ; what PBM binding z-score value has been reported?
# output 5.32

# input Suppose we examine the sequence `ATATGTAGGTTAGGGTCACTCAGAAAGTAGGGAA` ; what PBM binding z-score value has been reported?
# output 3.56

# input Suppose we examine the sequence `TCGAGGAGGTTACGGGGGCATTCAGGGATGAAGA` ; what PBM binding z-score value has been reported?
# output 3.37

# input Suppose we examine the sequence `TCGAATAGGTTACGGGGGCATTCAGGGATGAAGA` ; what PBM binding z-score value has been reported?
# output 3.02

# input Suppose we examine the sequence `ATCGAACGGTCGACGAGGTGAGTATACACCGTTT` ; what PBM binding z-score value has been reported?
# output 1.21

* * *

Measured PBM binding z-score by item
System: RARb homodimer (NR concentration 270 nM)
Assay: PBM binding z-score (relative to random genomic background probes); higher = stronger binding; sequences stand for … in GC…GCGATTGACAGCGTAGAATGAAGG
Lab note: record the figure alone, no unit after it.

Study these solved cases before continuing.
monomerSequence: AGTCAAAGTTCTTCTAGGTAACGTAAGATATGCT
measureName: PBM binding z-score
recordedValue: 0.172

monomerSequence: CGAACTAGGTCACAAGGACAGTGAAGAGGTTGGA
measureName: PBM binding z-score
recordedValue: 3.36

monomerSequence: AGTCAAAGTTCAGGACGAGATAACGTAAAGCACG
measureName: PBM binding z-score
recordedValue: 2.69

monomerSequence: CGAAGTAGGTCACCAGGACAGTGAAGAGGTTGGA
measureName: PBM binding z-score
recordedValue: 3.32

monomerSequence: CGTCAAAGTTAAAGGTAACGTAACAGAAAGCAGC
measureName: PBM binding z-score
recordedValue: 0.442

# input Suppose we examine the sequence `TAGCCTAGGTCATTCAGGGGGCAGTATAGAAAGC` ; what PBM binding z-score value has been reported?
# output 4.09

# input Suppose we examine the sequence `CTATGTAGGTTAAGGGGGTCATTGAGTTTGAAAG` ; what PBM binding z-score value has been reported?
# output 4.02

# input Suppose we examine the sequence `TCATATAGGTAATAAAGGTGAAAGTCGGCATCTA` ; what PBM binding z-score value has been reported?
# output 1.76

# input Suppose we examine the sequence `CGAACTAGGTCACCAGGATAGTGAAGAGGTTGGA` ; what PBM binding z-score value has been reported?
# output 3.4

# input Suppose we examine the sequence `GCTTACGGGTCAAAGGTTATAACATGAATAGAAT` ; what PBM binding z-score value has been reported?
# output 3.48

# input Suppose we examine the sequence `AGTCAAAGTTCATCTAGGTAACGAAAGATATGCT` ; what PBM binding z-score value has been reported?
# output 3.88

# input Suppose we examine the sequence `TCGAGTAGGTTACGTGGGCATTCAGGGATGAAGA` ; what PBM binding z-score value has been reported?
# output 0.175

# input Suppose we examine the sequence `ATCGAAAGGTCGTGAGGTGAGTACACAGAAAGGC` ; what PBM binding z-score value has been reported?
# output 3.12

# input Suppose we examine the sequence `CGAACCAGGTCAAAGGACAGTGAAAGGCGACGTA` ; what PBM binding z-score value has been reported?
# output 2.94

# input Suppose we examine the sequence `TCGAGTACGTTACGGGGGCATTCAGGGATGAAGA` ; what PBM binding z-score value has been reported?
# output 1.42

# input Suppose we examine the sequence `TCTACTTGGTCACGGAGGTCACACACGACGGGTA` ; what PBM binding z-score value has been reported?
# output 4.43

* * *

Test system: RXRa DBDmut IVT, anti-RXR (DBD mutation: RXRa K156A/R161A, NR concentration 90 nM)
Assay: PBM binding z-score (relative to random genomic background probes); higher = stronger binding; sequences stand for … in GC…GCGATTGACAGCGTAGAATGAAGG
Measured PBM binding z-score by item

Study these solved cases before continuing.
monomerSequence: CAAACTAGGTCAAGGGGTCAAAGTCCGCTTCCCG
testedOn: RXRa DBDmut IVT, anti-RXR (DBD mutation: RXRa K156A/R161A, NR concentration 90 nM)
recordedValue: 2.98
--
monomerSequence: TAGCCTAGGTCATGCGGGCCAGCATAGTGTCGGC
testedOn: RXRa DBDmut IVT, anti-RXR (DBD mutation: RXRa K156A/R161A, NR concentration 90 nM)
recordedValue: 0.374
--
monomerSequence: ATATGTAGGTAACATCCGGGTCATTCAGGCTATG
testedOn: RXRa DBDmut IVT, anti-RXR (DBD mutation: RXRa K156A/R161A, NR concentration 90 nM)
recordedValue: 0.786
--
monomerSequence: CAGACTAGGTCAAAGGTCAAAGTCGAGCCAACCA
testedOn: RXRa DBDmut IVT, anti-RXR (DBD mutation: RXRa K156A/R161A, NR concentration 90 nM)
recordedValue: 3.08
--
monomerSequence: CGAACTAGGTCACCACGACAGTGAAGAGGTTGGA
testedOn: RXRa DBDmut IVT, anti-RXR (DBD mutation: RXRa K156A/R161A, NR concentration 90 nM)
recordedValue: 1.66
--
monomerSequence: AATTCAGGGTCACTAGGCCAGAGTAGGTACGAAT
testedOn: RXRa DBDmut IVT, anti-RXR (DBD mutation: RXRa K156A/R161A, NR concentration 90 nM)
recordedValue: 3.39
--
monomerSequence: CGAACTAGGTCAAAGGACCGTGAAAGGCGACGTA
testedOn: RXRa DBDmut IVT, anti-RXR (DBD mutation: RXRa K156A/R161A, NR concentration 90 nM)
recordedValue: 1.42
--
monomerSequence: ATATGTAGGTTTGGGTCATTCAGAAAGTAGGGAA
testedOn: RXRa DBDmut IVT, anti-RXR (DBD mutation: RXRa K156A/R161A, NR concentration 90 nM)
recordedValue: 1.36

# input Suppose we examine the sequence `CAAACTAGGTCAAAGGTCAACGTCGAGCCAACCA` ; what PBM binding z-score value has been reported?
# output 2.88
